Data provenance is ChEMBL document CHEMBL1121458.

# Test system: Rattus norvegicus
# assay_notes: Antihypertensive activity was measured for systolic pressure using spontaneous hypertensive rats (SHR) at 50 mg/kg after oral administration
# Assay type: functional
# Change in systolic pressure per record follows
value_kind: Change in systolic pressure (mmHg)

compound | unit_string | value
c1ccc(SN2CCN(c3ccccn3)CC2)cc1 | mmHg | 40
c1ccc(SN2CCC(c3ccccc3)CC2)cc1 | mmHg | -9
[O-][S+](c1ccccc1)N1CCN(c2ccccn2)CC1 (stereo not drawn) | mmHg | 80

----------
# Tested on: Rattus norvegicus
# assay_notes: Antihypertensive activity was measured for systolic pressure using spontaneous hypertensive rats (SHR) at 50 mg/kg after oral administration
# Type: functional

molecule | Change in systolic pressure
Clc1ccccc1N1CCN(Sc2ccccc2)CC1 | 28 mmHg
O=S(=O)(c1ccccc1)N1CCN(c2ccccc2)CC1 | 26 mmHg
Clc1ccc(N2CCN(Sc3ccccc3)CC2)cc1 | 44 mmHg
c1ccc(SN2CCC3(CC2)OC(c2ccccc2)c2ccccc23)cc1 (stereo not drawn) | -66 mmHg
Cc1ccccc1N1CCN(Sc2ccccc2)CC1 | 8 mmHg
O=S(=O)(c1ccccc1)N1CCN(c2ccccn2)CC1 | 5 mmHg
COc1cccc(N2CCN(Sc3ccccc3)CC2)c1 | 35 mmHg
COc1ccccc1N1CCN(Sc2ccccc2)CC1 | 71 mmHg
c1ccc(CN2CCN(Sc3ccccc3)CC2)cc1 | 17 mmHg
FC(F)(F)c1cccc(N2CCN(Sc3ccccc3)CC2)c1 | 6 mmHg
Cc1ccc(C(=O)C2CCN(Sc3ccccc3)CC2)cc1 | 7 mmHg
Brc1ccc(OC2CCN(Sc3ccccc3)CC2)cc1 | -15 mmHg
[O-][S+](c1ccccc1)N1CCN(c2ccccc2)CC1 (stereo not drawn) | 83 mmHg
